- testDetails: Pharmacokinetic study in male ICR mice (IP and IV)
- Assay type: in vivo, mouse
- particulars: IV, 0.5 mg/kg, male ICR mouse plasma, n = 3, mean ± SD

structureSmiles: C[C@@H](Oc1cccc(-n2cc3c(n2)CCCC3)c1)C(=O)Nc1nnc(C(F)(F)F)s1
outputUnit: ng·h/mL
AUC(0-t): 9980
